Molecular target: SSTR5 (Homo sapiens)
Sequence (P35346 whole entry): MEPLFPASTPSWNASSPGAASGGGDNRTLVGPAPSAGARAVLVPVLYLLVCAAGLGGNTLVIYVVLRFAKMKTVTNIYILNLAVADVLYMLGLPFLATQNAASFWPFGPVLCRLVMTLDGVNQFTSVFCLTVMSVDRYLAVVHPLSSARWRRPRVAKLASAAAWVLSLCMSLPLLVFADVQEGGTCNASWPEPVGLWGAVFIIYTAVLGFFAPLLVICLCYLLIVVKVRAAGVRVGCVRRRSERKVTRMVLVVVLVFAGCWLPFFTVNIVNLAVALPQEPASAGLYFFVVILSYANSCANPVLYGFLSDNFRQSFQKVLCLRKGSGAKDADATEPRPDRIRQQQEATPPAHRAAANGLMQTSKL
Assay: SSTR5 receptor-ligand binding assay, CHO-K1 cell membranes, 125I-SRIF radioligand
Conditions: Table 2
test.readout: pKi
# reply with the number alone; pKi is -log10 of concentration in mol/L

Below: 5 molecules and their reported pKi.
smiles.record: CCOc1cc(CN2CCC3(CC2)CC(=O)N(c2ccc(C(=O)O)cc2)C3)cc(OCC)c1Br
reported.result: 8.12
//
smiles.record: CCOc1cc(CN2CCC3(CC2)CC(=O)N(c2ccc(C(=O)O)cc2)C3)cc(OCC)c1OCC
reported.result: 6.80
//
smiles.record: CCOc1cc(CN2CCC3(CC2)CC(=O)N(c2ccc(C(=O)O)cc2)C3)cc(OCC)c1-c1ncc(F)cc1F
reported.result: 8.35
//
smiles.record: CCOc1cc(CN2CCC3(CC2)CC(=O)N(CC(=O)O)C3)cc(OCC)c1-c1ccc(F)cc1
reported.result: 6.72
//
smiles.record: CCOc1cc(CN2CCC3(CC2)CC(=O)N(c2ccc(O)nc2)C3)cc(OCC)c1-c1ccc(F)cc1
reported.result: 8.51

Please examine the following record next.
Item: O=C(O)c1ccc(N2CC3(CCN(Cc4cc(O)c(-c5ccc(F)cc5)c(O)c4)CC3)CC2=O)cc1 Test system: SSTR5 (Homo sapiens) Read-out: pKi Value: ?
5.80
